Cited source: patent US8962648B2

IC50 values, listed per item
Tested on: HT-1197 cells
EXPERIMENTAL PROTOCOL: Cell-based assay, cellular growth (Cell Counting Kit-8, 72 hours), PBK-negative control cells
TEST PARAMETERS: Homo sapiens, HT1197, 72 h
Structures can show the parent of a compound that is named as a salt.
ENDPOINT NAME: IC50 (nM)

• NCCc1ccc(-c2c(O)cc(Cl)c3[nH]c(=O)c4sccc4c23)cc1 [Compound 1133, hydrochloride] = 870
• CC(CCl)NS(=O)(=O)c1ccc(-c2c(O)ccc3[nH]c(=O)c4sccc4c23)cc1 (stereo not shown) = 15000
• CC(N)c1ccc(-c2c(O)cc(Cl)c3[nH]c(=O)c4sccc4c23)cc1 (stereo not shown) [Compound 1041, hydrochloride] = 650
• CNC[C@H](C)c1ccc(-c2c(OC)cc(C)c3[nH]c(=O)c4sccc4c23)cc1 [Compound 1298, hydrochloride] = 160
• COc1ccc2[nH]c(=O)c3sccc3c2c1-c1ccc(C(C)CN)c(F)c1 (stereo not shown) [Compound 1179, hydrochloride] = 1900
• CNCCc1ccc(-c2c(O)cc(C)c3[nH]c(=O)c4sccc4c23)cc1 [Compound 1364, hydrochloride] = 660
• CC(CN)c1ccc(-c2c(O)cc(Cl)c3[nH]c(=O)c4sccc4c23)cc1 (stereo not shown) [Compound 1136, hydrochloride] = 180

====

System: T47D cells
EXPERIMENTAL PROTOCOL: Cell-based assay, cellular growth (Cell Counting Kit-8, 72 hours)
TEST PARAMETERS: hydrochloride
Description: 100 micro-L of cell suspension was seeded onto 96-well microtiter plate (ViewPlate-96FTC, PerkinElmer). […] Cellular growth was determined using Cell Counting Kit-8 (DOJINDO) at 72 hours after the exposure of the candidate inhibitors. […] Accurate IC50 values were calculated as described previously.
Where a name gives a salt, the structure may show the parent alone.
ENDPOINT NAME: IC50 (nM)

• CNC[C@H](C)c1ccc(-c2c(O)cc(C)c3[nH]c(=O)c4sccc4c23)cc1 [Compound 1306, hydrochloride] = 35

====

The compounds listed here are annotated with their pIC50.
System: HT-1197 cells
EXPERIMENTAL PROTOCOL: Cell-based assay, cellular growth (Cell Counting Kit-8, 72 hours), PBK-negative control cells
TEST PARAMETERS: Homo sapiens, HT1197, 72 h
pIC50: −log10 of the molar value. Where a name gives a salt, the structure may show the parent alone.
ENDPOINT NAME: pIC50

- COc1ccc2[nH]c(=O)c3sccc3c2c1-c1ccc(C(CN)C(C)C)cc1 (stereo not shown) [Compound 1253, hydrochloride]: 5.72
- C[C@@H](CN)c1ccc(-c2c(O)ccc3[nH]c(=O)c4sccc4c23)cc1 [Compound 1160, hydrochloride]: 6.64
- C[C@@H](N)c1ccc(-c2c(O)cc(Cl)c3[nH]c(=O)c4sccc4c23)cc1 [Compound 1081, hydrochloride]: 6.41
- Cc1cc(O)c(-c2ccc([C@@H](C)CN)c(F)c2)c2c1[nH]c(=O)c1sccc12 [Compound 1318, hydrochloride]: 7.20
- Cc1cc(O)c(-c2ccc(N(C)CCN)cc2)c2c1[nH]c(=O)c1sccc12 [Compound 1400, hydrochloride]: 5.55
- Cc1cc(O)c(-c2ccc(C(CN)C(C)C)c(F)c2)c2c1[nH]c(=O)c1sccc12 (stereo not shown) [Compound 1288]: 6.85
- COc1cc(C)c2[nH]c(=O)c3sccc3c2c1-c1ccc([C@@H](C)CN)c(F)c1 [Compound 1317, hydrochloride]: 7.00

====

System: HT-1197 cells
EXPERIMENTAL PROTOCOL: Cell-based assay, cellular growth (Cell Counting Kit-8, 72 hours), PBK-negative control cells
TEST PARAMETERS: Homo sapiens, HT1197, 72 h
pIC50: −log10 of the molar value. Counter-ions that a name gives are not always drawn.
ENDPOINT NAME: pIC50

• Cc1cc(O)c(-c2ccc(CCN)c(F)c2)c2c1[nH]c(=O)c1sccc12 [Compound 1217, hydrochloride] = 6.32
• CNCC(C)c1ccc(-c2c(OC)cc(C)c3[nH]c(=O)c4sccc4c23)cc1F (stereo not shown) [Compound 1286, hydrochloride] = 6.66
• Cc1cc(O)c(-c2ccc(CCC#N)cc2)c2c1[nH]c(=O)c1sccc12 = 5.89
• NCCc1ccc(-c2c(O)cc(Cl)c3[nH]c(=O)c4sccc4c23)cc1F [Compound 1219, hydrochloride] = 6.06

====

Tested on: T47D cells
EXPERIMENTAL PROTOCOL: Cell-based assay, cellular growth (Cell Counting Kit-8, 72 hours)
TEST PARAMETERS: hydrobromide
Description: 100 micro-L of cell suspension was seeded onto 96-well microtiter plate (ViewPlate-96FTC, PerkinElmer). […] Cellular growth was determined using Cell Counting Kit-8 (DOJINDO) at 72 hours after the exposure of the candidate inhibitors. […] Accurate IC50 values were calculated as described previously.
Where a name gives a salt, the structure may show the parent alone.
IC50 values, listed per item
ENDPOINT NAME: IC50 (nM)

- Cc1cc(O)c(-c2ccc([C@H](C)CN)c(F)c2)c2c1[nH]c(=O)c1sccc12 [Compound 1304, hydrobromide]: 120
- CNC[C@H](C)c1ccc(-c2c(O)cc(C)c3[nH]c(=O)c4sccc4c23)cc1 [Compound 1307, hydrobromide]: 85
- Cc1cc(O)c(-c2ccc([C@@H](C)CN)c(F)c2)c2c1[nH]c(=O)c1sccc12 [Compound 1319, hydrobromide]: 16

====

TARGET OR SYSTEM: PBK (Homo sapiens (Human), UniProt Q96KB5)
Sequence (Q96KB5 whole entry): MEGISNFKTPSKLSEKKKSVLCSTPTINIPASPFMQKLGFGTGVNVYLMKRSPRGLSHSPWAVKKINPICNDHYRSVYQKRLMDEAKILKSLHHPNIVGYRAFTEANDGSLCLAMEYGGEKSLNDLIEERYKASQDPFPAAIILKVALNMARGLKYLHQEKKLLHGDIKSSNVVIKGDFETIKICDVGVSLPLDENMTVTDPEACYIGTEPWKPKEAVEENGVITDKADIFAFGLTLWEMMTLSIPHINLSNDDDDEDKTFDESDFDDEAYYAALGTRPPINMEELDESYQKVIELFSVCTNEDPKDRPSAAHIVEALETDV
EXPERIMENTAL PROTOCOL: Kinase assay (IMAP fluorescence polarization, FITC-labeled histone H3 peptide)
Assay type: biochemical
TEST PARAMETERS: PBK 0.8 ng/micro-L, 50 micro-M ATP, 100 nM FITC-labeled histone H3 peptide, room temperature 1 hour
pIC50: −log10 of the molar value. Counter-ions that a name gives are not always drawn.
Each record here notes measured pIC50.
ENDPOINT NAME: pIC50

• Cc1cc(O)c(-c2ccc(C3CCCNC3)cc2)c2c1[nH]c(=O)c1sccc12 (stereo not drawn) [Compound 1302, hydrochloride] = 7.12
• Cc1cc(O)c(-c2ccc(C(C)CN)c(F)c2)c2c1[nH]c(=O)c1sccc12 (stereo not drawn) [Compound 1190, hydrochloride] = 8.29
• Cc1cc(O)c(-c2ccc(N(C)CCN)cc2)c2c1[nH]c(=O)c1sccc12 [Compound 1400, hydrochloride] = 7.22
• COc1ccc2[nH]c(=O)c3sccc3c2c1-c1ccc(C(C)CN)c(F)c1 (stereo not drawn) [Compound 1179, hydrochloride] = 8.52
• CNCC(C)c1ccc(-c2c(O)cc(C)c3[nH]c(=O)c4sccc4c23)cc1F (stereo not drawn) [Compound 1293] = 8.05
• C[C@@H](CN)c1ccc(-c2c(O)cc(Br)c3[nH]c(=O)c4sccc4c23)cc1 [Compound 1176, hydrochloride] = 7.77
• COc1cc(C)c2[nH]c(=O)c3sccc3c2c1-c1ccc(C(CN)C(C)C)c(F)c1 (stereo not drawn) [Compound 1283, hydrochloride] = 7.33
• NCC(c1ccc(-c2c(O)ccc3[nH]c(=O)c4sccc4c23)cc1)C1CCCC1 (stereo not drawn) [Compound 1236] = 8.34
• Cc1cc(O)c(-c2ccc(C(CN)C(C)C)cc2)c2c1[nH]c(=O)c1sccc12 (stereo not drawn) [Compound 1274] = 7.74
• Cc1cc(O)c(-c2ccc(C(CN)C(C)C)c(F)c2)c2c1[nH]c(=O)c1sccc12 (stereo not drawn) [Compound 1288] = 7.70
• CN[C@H](C)c1ccc(-c2c(O)ccc3[nH]c(=O)c4sccc4c23)cc1 [Compound 1052, hydrochloride] = 8.89
• COc1cc(C)c2[nH]c(=O)c3sccc3c2c1-c1ccc([C@@H](C)CN)cc1 [Compound 1305, hydrochloride] = 7.82
• CC[C@@H](CN)c1ccc(-c2c(O)cc(C)c3[nH]c(=O)c4sccc4c23)cc1 [Compound 1352, hydrochloride] = 7.40
• CNC[C@H](C)c1ccc(-c2c(OC)cc(C)c3[nH]c(=O)c4sccc4c23)cc1 [Compound 1298, hydrochloride] = 7.49
• CNCCc1ccc(-c2c(O)cc(C)c3[nH]c(=O)c4sccc4c23)cc1 [Compound 1364, hydrochloride] = 7.26

====

System: HT-1197 cells
EXPERIMENTAL PROTOCOL: Cell-based assay, cellular growth (Cell Counting Kit-8, 72 hours), PBK-negative control cells
TEST PARAMETERS: Homo sapiens, HT1197, 72 h
Counter-ions that a name gives are not always drawn.
This section presents compounds with their documented IC50 values.
ENDPOINT NAME: IC50 (nM)

• CNCC(C)c1ccc(-c2c(O)cc(C)c3[nH]c(=O)c4sccc4c23)cc1F (stereo not drawn) = 190
• Cc1cc(O)c(-c2ccc(C(C)(C)CN)cc2)c2c1[nH]c(=O)c1sccc12 [Compound 1228, hydrochloride] = 810
• Cc1cc(O)c(-c2ccc(C3CCCNC3)cc2)c2c1[nH]c(=O)c1sccc12 (stereo not drawn) [Compound 1302, hydrochloride] = 1500
• COc1cc(Cl)c2[nH]c(=O)c3sccc3c2c1-c1ccc([C@@H](C)CN)cc1 [Compound 1201, hydrochloride] = 140
• COc1cc(C)c2[nH]c(=O)c3sccc3c2c1-c1ccc(CCN)c(F)c1 [Compound 1216, hydrochloride] = 640
• CN[C@H](C)c1ccc(-c2c(O)cc(Cl)c3[nH]c(=O)c4sccc4c23)cc1 [Compound 1132, hydrochloride] = 320
• C[C@@H](CN(C)C)c1ccc(-c2c(O)cc(Cl)c3[nH]c(=O)c4sccc4c23)cc1 [Compound 1347, hydrochloride] = 260
• Cc1cc(O)c(-c2ccc(C(C)CN(C)C)c(F)c2)c2c1[nH]c(=O)c1sccc12 (stereo not drawn) [Compound 1193, hydrochloride] = 330
• NCCc1ccc(-c2c(O)cc(Br)c3[nH]c(=O)c4sccc4c23)cc1 [Compound 1142, hydrochloride] = 1000
• CNCC(c1ccc(-c2c(O)cc(C)c3[nH]c(=O)c4sccc4c23)cc1)C(C)C (stereo not drawn) = 280
• COc1cc(C)c2[nH]c(=O)c3sccc3c2c1-c1ccc([C@@H](C)CN)cc1 [Compound 1305, hydrochloride] = 64
• COc1cc(C)c2[nH]c(=O)c3sccc3c2c1-c1ccc([C@H](C)CN)c(F)c1 [Compound 1310, hydrochloride] = 890
• C[C@H](c1ccc(-c2c(O)cc(Cl)c3[nH]c(=O)c4sccc4c23)cc1)N(C)C [Compound 1126, hydrochloride] = 320
• COc1ccc2[nH]c(=O)c3sccc3c2c1-c1ccc(C(CN)C2CCCC2)cc1 (stereo not drawn) [Compound 1239, hydrochloride] = 1700
• CNC[C@H](C)c1ccc(-c2c(O)ccc3[nH]c(=O)c4sccc4c23)cc1 [Compound 1187, hydrochloride] = 320
